Test system: Mus musculus
Test: Cmax after oral administration at 30 mg/kg in ICR mouse
Assay type: ADME, organism-based
Design: dose 30 mg/kg, route oral
Settings: in vivo
PROPERTY: Cmax (µg/mL)

(A) C/C(=C/C=C/C(C)=C/C(=O)O)c1cc(C(C)(C)C)cc(C(C)(C)C)c1OCC(F)F
(B) CC(/C=C/C(F)=C(/C)c1cc(C(C)(C)C)cc(C(C)(C)C)c1OCC(F)F)=C\C(=O)O
Of A and B , which carries the smaller reported Cmax figure? // return label of chosen record A

---

pKi: −log10 of the molar value.
Let's go through some recorded pKi values for UniProt P19793 together.
Sequence (P19793 whole entry): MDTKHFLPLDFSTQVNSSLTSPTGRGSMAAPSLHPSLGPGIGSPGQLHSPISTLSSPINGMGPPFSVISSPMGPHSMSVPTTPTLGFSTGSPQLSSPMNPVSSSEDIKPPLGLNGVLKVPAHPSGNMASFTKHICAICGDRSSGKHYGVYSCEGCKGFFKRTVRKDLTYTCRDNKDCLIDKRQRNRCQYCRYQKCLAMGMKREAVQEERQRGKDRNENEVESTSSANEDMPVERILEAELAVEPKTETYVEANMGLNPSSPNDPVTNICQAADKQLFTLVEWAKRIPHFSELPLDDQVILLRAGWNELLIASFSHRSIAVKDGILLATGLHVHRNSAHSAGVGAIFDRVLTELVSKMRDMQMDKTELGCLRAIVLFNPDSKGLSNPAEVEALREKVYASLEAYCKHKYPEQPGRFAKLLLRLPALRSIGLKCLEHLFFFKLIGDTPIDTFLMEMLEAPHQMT
PROPERTY: pKi

(1) CCCCOc1c(\C(C)=C/C=C/C(=C/C(=O)O)C(F)(F)F)cc(C(C)(C)C)cc1C(C)(C)C
(2) CCCCOc1c(\C(C)=C/C=C/C(C)=C/C(=O)O)cc(C(C)(C)C)cc1C(C)(C)C
Of 1 and 2 , which carries the smaller reported pKi figure? // return label of chosen record 1
(1: 5.28, 2: 8.42)
